- test.method.notes: qHTS assay to identify small molecule antagonists of the androgen receptor (AR) signaling pathway using the MDA cell line - cell viability counter screen (AID 743041; also: nearly all actives have a fitted effect of over 45% in size)
- conditions.used: MDA-kb2 viability, CellTiter-Fluor, 16 h, cells co-treated with R1881 androgen agonist; series mostly up to 70.3 µM
Results filed as inconclusive are left out. Active and inactive are the calls of the source. Calls follow the shape of the dose curve; as a rule, active = well fitted cell-killing curve with a large enough effect in the repeat runs; inconclusive = weak or mixed curves, or effect the other way; inactive = flat fitted curve, though single readings scatter.
Outcome codes: active, inactive

>  <molecule>
CC(=O)NO

>  <class.name>
inactive

$$$$
>  <molecule>
CC(C)C[C@H]1C(=O)N2CCC[C@H]2[C@]2(O)O[C@](NC(=O)[C@@H]3C=C4c5cccc6[nH]c(Br)c(c56)C[C@H]4N(C)C3)(C(C)C)C(=O)N12

>  <class.name>
inactive

$$$$
>  <molecule>
O=C(Cl)c1cc(C(=O)Cl)cc(C(=O)Cl)c1

>  <class.name>
inactive

$$$$
>  <molecule>
Nc1ccc(S(=O)(=O)Nc2ccccc2)cc1

>  <class.name>
inactive

$$$$
>  <molecule>
NCCCN1CCOCC1

>  <class.name>
active

$$$$
>  <molecule>
O=C1CCCCCCCCCCCC(=O)OCCO1

>  <class.name>
inactive

$$$$
>  <molecule>
CCCCNc1ccc(C(=O)OCCOCCOCCOCCOCCOCCOCCOCCOCCOC)cc1

>  <class.name>
inactive

$$$$
>  <molecule>
Cc1ccc(N=Nc2c(O)c(C(=O)O)cc3ccccc23)c(S(=O)(=O)O)c1

>  <class.name>
inactive

$$$$
>  <molecule>
O=C1c2ccccc2S(=O)(=O)N1CCCCN1CCN(c2ncccn2)CC1

>  <class.name>
inactive

$$$$
>  <molecule>
C#C[C@]1(O)CC[C@H]2[C@@H]3CCc4cc(OC5CCCC5)ccc4[C@H]3CC[C@@]21C

>  <class.name>
inactive

$$$$
>  <molecule>
COc1ccc(-c2nc3ccc(C4=NNC(=O)CC4C)cc3[nH]2)cc1 (centres undefined)

>  <class.name>
inactive

$$$$
>  <molecule>
CN1CCC(N(Cc2cccs2)c2ccccc2)CC1

>  <class.name>
inactive

$$$$
>  <molecule>
c1cc(CCCc2ccncc2)ccn1

>  <class.name>
inactive

$$$$
>  <molecule>
C#Cc1cccc(Nc2ncnc3cc(OCCOC)c(OCCOC)cc23)c1

>  <class.name>
inactive

$$$$
>  <molecule>
COc1ccc(C(=O)c2ccc(OC)cc2O)c(O)c1

>  <class.name>
inactive

$$$$
>  <molecule>
CCCCCCCCCOS(=O)(=O)O

>  <class.name>
inactive

$$$$
>  <molecule>
CC(CC=O)c1ccccc1 (centres undefined)

>  <class.name>
inactive

$$$$
>  <molecule>
COC(C)OC

>  <class.name>
inactive

$$$$
>  <molecule>
CO[C@@H]1[C@H](OC(=O)/C=C/C=C/C=C/C=C/C(=O)O)CC[C@]2(CO2)[C@H]1[C@@]1(C)O[C@@H]1CC=C(C)C

>  <class.name>
inactive

$$$$
>  <molecule>
CCN(CC)CCNC(=O)c1cc(Br)c(N)cc1OC

>  <class.name>
inactive

$$$$
>  <molecule>
Cn1c(=O)cc(Oc2ccc(F)cc2F)c2cnc(NCC(C)(C)O)nc21

>  <class.name>
inactive

$$$$
>  <molecule>
CN(C)C(=O)NC1(c2ccccc2)CCN(CC[C@@]2(c3ccc(F)c(F)c3)CN(C(=O)c3ccccc3)CCO2)CC1

>  <class.name>
inactive

$$$$
>  <molecule>
COc1ccnc(CS(=O)c2nc3ccc(OC(F)F)cc3[nH]2)c1OC (centres undefined)

>  <class.name>
inactive

$$$$
>  <molecule>
CCOCC(O)COc1ccc(NC(=O)CC[S+](C)C)cc1 (centres undefined)

>  <class.name>
inactive

$$$$
